# TEST SYSTEM: IKZF2 (Homo sapiens (Human), UniProt Q96SW2+Q9UKS7)
# Sequence (Q9UKS7 whole entry): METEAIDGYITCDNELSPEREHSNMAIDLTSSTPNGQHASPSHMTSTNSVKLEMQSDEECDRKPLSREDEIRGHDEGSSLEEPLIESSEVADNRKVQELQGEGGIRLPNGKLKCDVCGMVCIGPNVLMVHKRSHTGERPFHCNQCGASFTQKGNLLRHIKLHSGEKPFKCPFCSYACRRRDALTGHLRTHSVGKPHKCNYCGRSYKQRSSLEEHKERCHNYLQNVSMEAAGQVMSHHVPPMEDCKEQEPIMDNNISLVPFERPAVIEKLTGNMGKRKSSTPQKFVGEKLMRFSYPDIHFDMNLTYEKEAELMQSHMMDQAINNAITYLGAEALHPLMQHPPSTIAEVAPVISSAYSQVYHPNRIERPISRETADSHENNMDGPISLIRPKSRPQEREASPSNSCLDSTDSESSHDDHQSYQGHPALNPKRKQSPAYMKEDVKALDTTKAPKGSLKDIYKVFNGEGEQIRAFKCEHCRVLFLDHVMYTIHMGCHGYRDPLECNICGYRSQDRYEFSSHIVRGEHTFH
# Sequence (Q96SW2 whole entry): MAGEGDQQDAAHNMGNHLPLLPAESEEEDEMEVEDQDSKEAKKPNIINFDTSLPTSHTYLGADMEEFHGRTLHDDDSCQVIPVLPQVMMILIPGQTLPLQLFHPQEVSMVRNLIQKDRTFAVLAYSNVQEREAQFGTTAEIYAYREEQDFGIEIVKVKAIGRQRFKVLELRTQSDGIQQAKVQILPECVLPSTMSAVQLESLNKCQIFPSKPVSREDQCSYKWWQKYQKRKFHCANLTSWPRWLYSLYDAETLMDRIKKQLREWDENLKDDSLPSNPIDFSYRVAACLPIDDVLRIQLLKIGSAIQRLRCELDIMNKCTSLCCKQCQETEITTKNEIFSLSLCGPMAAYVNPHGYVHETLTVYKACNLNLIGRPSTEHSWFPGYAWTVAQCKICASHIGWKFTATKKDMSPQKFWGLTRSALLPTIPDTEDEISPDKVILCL
# Sequence (Q16531 whole entry partner): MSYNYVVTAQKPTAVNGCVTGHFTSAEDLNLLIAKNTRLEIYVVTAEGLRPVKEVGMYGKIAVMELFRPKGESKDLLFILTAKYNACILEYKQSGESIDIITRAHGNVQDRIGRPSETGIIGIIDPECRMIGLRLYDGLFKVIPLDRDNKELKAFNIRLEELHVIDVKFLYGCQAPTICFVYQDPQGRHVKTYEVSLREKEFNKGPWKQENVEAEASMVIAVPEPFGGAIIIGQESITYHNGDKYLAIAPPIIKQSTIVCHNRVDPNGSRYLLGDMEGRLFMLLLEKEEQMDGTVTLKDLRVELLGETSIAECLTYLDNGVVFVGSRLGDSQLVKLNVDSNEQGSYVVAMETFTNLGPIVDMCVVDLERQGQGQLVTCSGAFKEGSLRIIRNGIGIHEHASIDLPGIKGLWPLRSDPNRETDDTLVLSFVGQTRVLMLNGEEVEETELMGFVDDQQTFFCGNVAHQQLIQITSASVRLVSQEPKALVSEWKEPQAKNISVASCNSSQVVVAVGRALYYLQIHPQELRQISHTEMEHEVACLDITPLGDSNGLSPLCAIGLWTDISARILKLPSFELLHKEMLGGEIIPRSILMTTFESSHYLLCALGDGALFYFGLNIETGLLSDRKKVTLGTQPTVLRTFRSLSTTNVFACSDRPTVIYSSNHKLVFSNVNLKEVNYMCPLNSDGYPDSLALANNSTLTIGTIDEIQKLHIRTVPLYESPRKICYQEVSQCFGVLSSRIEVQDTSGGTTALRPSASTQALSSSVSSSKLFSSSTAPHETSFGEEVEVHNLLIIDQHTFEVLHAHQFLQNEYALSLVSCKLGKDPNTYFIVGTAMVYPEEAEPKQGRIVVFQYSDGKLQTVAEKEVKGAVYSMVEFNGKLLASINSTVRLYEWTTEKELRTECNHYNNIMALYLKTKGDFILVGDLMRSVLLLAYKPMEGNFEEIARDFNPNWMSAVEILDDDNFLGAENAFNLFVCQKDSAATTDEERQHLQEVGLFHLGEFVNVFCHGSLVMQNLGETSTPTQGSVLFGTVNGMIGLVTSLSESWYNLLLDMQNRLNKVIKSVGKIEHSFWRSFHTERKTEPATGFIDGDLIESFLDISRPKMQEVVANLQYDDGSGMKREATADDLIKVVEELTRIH
# TEST PROTOCOL: IKZF2 HiBiT Assay (Jurkat-IKZF2-HiBiT cell line)
# Assay type: cell-based
# PROTOCOL CONDITIONS: Jurkat-IKZF2-HiBiT cells, 24 hours; read-out: HiBit assay degradation analysis Dmax
MEASUREMENT KIND: Dmax

What does the data say about its Dmax? Entry: O=C1CCC(N2Cc3c(ccc4c3OCC43CCN(Cc4cnn(-c5cccc(F)c5)c4)CC3)C2=O)C(=O)N1 (centres unmarked) [Compound A311]
40 to 60%

Cn1ccc(-c2cccc(CN3CCC4(CC3)COc3c4ccc4c3CN([C@H]3CCC(=O)NC3=O)C4=O)c2)n1 [Compound A267] , same question.
60 to 80%

COCCn1cc2ccc(CN3CCC4(CC3)COc3c4ccc4c3CN([C@H]3CCC(=O)NC3=O)C4=O)cc2n1 [Compound A287] , same question.
60 to 80%

Cc1ccc(CN2CCC3(CC2)COc2c3ccc3c2CN(C2CCC(=O)NC2=O)C3=O)cc1 (centres unmarked) [Compound A15] , same question.
40 to 60%

O=C1CCC(N2Cc3c(ccc4c3OCC43CCN(Cc4ccnc5ccccc45)CC3)C2=O)C(=O)N1 (centres unmarked) [Compound A44] , same question.
< 40%

O=C1CCC(N2Cc3c(ccc4c3OCC43CCN(Cc4ccc5c(c4)NC(=O)C5)CC3)C2=O)C(=O)N1 (centres unmarked) [Compound A131] , same question.
60 to 80%

O=C1CCC(N2Cc3c(ccc4c3OCC43CCN(Cc4ccc5nccnc5c4)CC3)C2=O)C(=O)N1 (centres unmarked) [Compound A48] , same question.
< 40%

O=C1CC[C@H](N2Cc3c(ccc4c3OCC43CCN(Cc4cccc(-c5cnn(C[C@@H]6CCO6)c5)c4)CC3)C2=O)C(=O)N1 [Compound A274] , same question.
60 to 80%

O=C1CCC(N2Cc3c(ccc4c3OCC43CCN(Cc4ccccc4Cl)CC3)C2=O)C(=O)N1 (centres unmarked) [Compound A214] , same question.
40 to 60%

Cc1c2ccc(CN3CCC4(CC3)COc3c4ccc4c3CN([C@H]3CCC(=O)NC3=O)C4=O)cc2nn1C [Compound A295] , same question.
60 to 80%

O=C1CCC(N2Cc3c(ccc4c3OCC43CCN(Cc4cccc5ccnn45)CC3)C2=O)C(=O)N1 (centres unmarked) [Compound A76] , same question.
< 40%

O=C1CC[C@H](N2Cc3c(ccc4c3OCC43CCN(Cc4cccc(-c5cnn(C[C@H]6CCO6)c5)c4)CC3)C2=O)C(=O)N1 [Compound A273] , same question.
60 to 80%

O=C1CCC(N2Cc3c(ccc4c3OCC43CCN(Cc4ccc(-c5cn[nH]c5)cc4)CC3)C2=O)C(=O)N1 (centres unmarked) [Compound A162] , same question.
60 to 80%

O=C1CC[C@H](N2Cc3c(ccc4c3OCC43CCN(Cc4ccc5c(c4)C(=O)NC5)CC3)C2=O)C(=O)N1 [Compound A171] , same question.
60 to 80%

* * *

Can you tell me Dmax for the items I'm about to list?
# TEST SYSTEM: IKZF2 (Homo sapiens (Human), UniProt Q96SW2+Q9UKS7)
# TEST PROTOCOL: IKZF2 HiBiT Assay (Jurkat-IKZF2-HiBiT cell line)
# Format: cell-based
# PROTOCOL CONDITIONS: Jurkat-IKZF2-HiBiT cells, 24 hours; read-out: HiBit assay degradation analysis Dmax

What does the data say about its Dmax? Entry: Cn1ncc2cccc(CN3CCC4(CC3)COc3c4ccc4c3CN(C3CCC(=O)NC3=O)C4=O)c21 (stereo not drawn)
40 to 60%

Cn1ccc2c(CN3CCC4(CC3)COc3c4ccc4c3CN(C3CCC(=O)NC3=O)C4=O)cccc21 (stereo not drawn) , same question.
60 to 80%

O=C1CCC(N2Cc3c(ccc4c3OCC43CCN(Cc4ccccc4OCc4ccccn4)CC3)C2=O)C(=O)N1 (stereo not drawn) , same question.
60 to 80%

CC(C)c1ccc(CN2CCC3(CC2)COc2c3ccc3c2CN(C2CCC(=O)NC2=O)C3=O)cc1 (stereo not drawn) , same question.
< 40%

O=C1CCC(N2Cc3c(ccc4c3OCC43CCN(Cc4ccn(-c5ccccc5F)n4)CC3)C2=O)C(=O)N1 (stereo not drawn) , same question.
< 40%

O=C1CCC(N2Cc3c(ccc4c3OCC43CCN(CC4CCC(F)(F)CC4)CC3)C2=O)C(=O)N1 (stereo not drawn) , same question.
40 to 60%

O=C1CCC(N2Cc3c(ccc4c3OCC43CCN(Cc4cccc(-c5cnn(C6COC6)c5)c4)CC3)C2=O)C(=O)N1 (stereo not drawn) , same question.
60 to 80%

O=C1CC[C@H](N2Cc3c(ccc4c3OCC43CCN(Cc4cnn(S(=O)(=O)c5ccccc5Cl)c4)CC3)C2=O)C(=O)N1 , same question.
60 to 80%

O=C1CCC(N2Cc3c(ccc4c3OCC43CCN(Cc4cccc5[nH]cnc45)CC3)C2=O)C(=O)N1 (stereo not drawn) , same question.
40 to 60%

CCOc1cccc(CN2CCC3(CC2)COc2c3ccc3c2CN(C2CCC(=O)NC2=O)C3=O)n1 (stereo not drawn) , same question.
< 40%

O=C1CCC(N2Cc3c(ccc4c3OCC43CCN(Cc4cccc(-c5ccccc5)c4)CC3)C2=O)C(=O)N1 (stereo not drawn) , same question.
40 to 60%

O=C1CCC(N2Cc3c(ccc4c3OCC43CCN(Cc4ccc5cnccc5c4)CC3)C2=O)C(=O)N1 (stereo not drawn) , same question.
40 to 60%

CCn1ncc2ccc(CN3CCC4(CC3)COc3c4ccc4c3CN([C@H]3CCC(=O)NC3=O)C4=O)cc21 , same question.
60 to 80%

CCn1cc(-c2cccc(CN3CCC4(CC3)COc3c4ccc4c3CN(C3CCC(=O)NC3=O)C4=O)c2)cn1 (stereo not drawn) , same question.
60 to 80%

O=C1CCC(N2Cc3c(ccc4c3OCC43CCN(Cc4ccc5ccccc5c4)CC3)C2=O)C(=O)N1 (stereo not drawn) , same question.
60 to 80%

* * *

# TEST SYSTEM: IKZF2 (Homo sapiens (Human), UniProt Q96SW2+Q9UKS7)
# TEST PROTOCOL: IKZF2 HiBiT Assay (Jurkat-IKZF2-HiBiT cell line)
# Type: cell-based
# PROTOCOL CONDITIONS: Jurkat-IKZF2-HiBiT cells, 24 hours; read-out: HiBit assay degradation analysis DC50
MEASUREMENT KIND: DC50

What does the data say about its DC50? Entry: Cn1ccc(-c2cccc(CN3CCC4(CC3)COc3c4ccc4c3CN(C3CCC(=O)NC3=O)C4=O)c2)n1 (stereo not shown)
< 50 nM

CO[C@H]1C[C@H](n2cc(-c3cccc(CN4CCC5(CC4)COc4c5ccc5c4CN([C@H]4CCC(=O)NC4=O)C5=O)c3)cn2)C1 , same question.
< 50 nM

O=C1CCC(N2Cc3c(ccc4c3OCC43CCN(Cc4nccc5ccccc45)CC3)C2=O)C(=O)N1 (stereo not shown) , same question.
> 500 nM

O=C1CCC(N2Cc3c(ccc4c3OCC43CCN(Cc4cnn(S(=O)(=O)c5ccc(F)c(F)c5)c4)CC3)C2=O)C(=O)N1 (stereo not shown) , same question.
> 500 nM

CCOc1cccc(CN2CCC3(CC2)COc2c3ccc3c2CN(C2CCC(=O)NC2=O)C3=O)n1 (stereo not shown) , same question.
> 500 nM

Cn1nccc1-c1cccc(CN2CCC3(CC2)COc2c3ccc3c2CN(C2CCC(=O)NC2=O)C3=O)c1 (stereo not shown) , same question.
200 to 500 nM

O=C1CCC(N2Cc3c(ccc4c3OCC43CCN(Cc4cccc(C5CC5)c4)CC3)C2=O)C(=O)N1 (stereo not shown) , same question.
> 500 nM

* * *

# TEST SYSTEM: IKZF1 (Homo sapiens (Human), UniProt Q13422+Q96SW2)
# Sequence (Q13422 whole entry): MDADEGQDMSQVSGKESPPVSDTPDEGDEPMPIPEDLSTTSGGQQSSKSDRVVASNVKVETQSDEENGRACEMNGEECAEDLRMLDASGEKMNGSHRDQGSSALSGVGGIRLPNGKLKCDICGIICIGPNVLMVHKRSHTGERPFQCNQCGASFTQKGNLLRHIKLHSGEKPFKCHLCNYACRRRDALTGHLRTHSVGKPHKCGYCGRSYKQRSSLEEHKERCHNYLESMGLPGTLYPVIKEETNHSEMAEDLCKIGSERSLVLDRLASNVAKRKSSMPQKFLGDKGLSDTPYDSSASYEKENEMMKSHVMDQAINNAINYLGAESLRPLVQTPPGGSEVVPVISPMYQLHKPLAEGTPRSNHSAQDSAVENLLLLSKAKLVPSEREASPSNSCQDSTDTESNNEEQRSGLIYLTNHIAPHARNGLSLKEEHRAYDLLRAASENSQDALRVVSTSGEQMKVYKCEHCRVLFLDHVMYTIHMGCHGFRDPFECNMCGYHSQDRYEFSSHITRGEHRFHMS
# Sequence (Q96SW2 whole entry): as the sequence (Q96SW2 whole entry) above
# Sequence (Q16531 whole entry partner): as the sequence (Q16531 whole entry partner) above
# TEST PROTOCOL: IKZF1 HiBit Assay (HEK293T Flp-in-HiBiT-IKZF1 stable cell line)
# Format: cell-based
# PROTOCOL CONDITIONS: HEK293T Flp-in-HiBiT-IKZF1 cells, 6 hrs; read-out: IKZF1 HiBit degradation DC50
MEASUREMENT KIND: DC50

What does the data say about its DC50? Entry: [2H]C1([2H])Oc2c(ccc3c2CN(C2CCC(=O)NC2=O)C3=O)C12CCN(Cc1cccc(-c3cnn(C)c3)c1)CC2 (stereo not shown)
> 1000 nM

Cn1cc(-c2cccc(CN3CCC4(COc5c4ccc4c5CN(C5CCC(=O)NC5=O)C4=O)C(F)(F)C3)c2)cn1 (stereo not shown) , same question.
> 1000 nM

[2H]C([2H])([2H])n1cc(-c2cccc(CN3CCC4(COc5c4ccc4c5CN([C@H]5CCC(=O)NC5=O)C4=O)C(F)(F)C3)c2)cn1 (stereo partly shown) , same question.
> 1000 nM

Cn1cc2ccc(CN3CCC4(COc5c4ccc4c5CN([C@H]5CCC(=O)NC5=O)C4=O)C(F)(F)C3)cc2n1 (stereo partly shown) , same question.
> 1000 nM

O=C1CCC(N2Cc3c(ccc4c3OCC43CCN(Cc4ccccc4)CC3F)C2=O)C(=O)N1 (stereo not shown) , same question.
> 1000 nM

Cn1cc2cccc(CN3CCC4(COc5c4ccc4c5CN([C@H]5CCC(=O)NC5=O)C4=O)C(F)(F)C3)c2n1 (stereo partly shown) , same question.
< 1 nM

O=C1CC[C@H](N2Cc3c(ccc4c3OCC43CCN(Cc4cnn(CC5CCS(=O)(=O)CC5)c4)CC3(F)F)C2=O)C(=O)N1 (stereo partly shown) , same question.
> 1000 nM
